Data provenance: ChEMBL document CHEMBL1123899

Would you mind telling me the reported MIC50 of each entry?
- Tested on: Vesicular stomatitis virus
- ASSAY TEXT: Minimum inhibitory concentration required to reduce vesicular stomatitis virus (VSV) induced cytopathogenicity by 50%
- Format: functional

Request: Look up MIC50 of `Nc1ncnc2c([C@H]3C[C@H](O)[C@@H](CO)O3)n[nH]c12` and report it.
Result: > 400 µg/mL

Hi there! I need MIC50 for each item below, if you can.
1. NC(=O)c1cn([C@@H]2O[C@H](CO)[C@@H](O)[C@@H]2O)c2ncnc(N)c12
2. NC(=O)c1cn([C@H]2C[C@H](O)[C@@H](CO)O2)c2ncnc(N)c12
3. N#Cc1cn([C@H]2C[C@H](O)[C@@H](CO)O2)c2ncnc(N)c12
4. N#Cc1cn([C@@H]2O[C@H](CO)[C@@H](O)[C@H]2O)c2ncnc(N)c12
5. N#Cc1cn(C2OC(CO)CC2O)c2ncnc(N)c12 (configuration not stated)

Result:
1. 3 µg/mL
2. 2 µg/mL
3. 0.5 µg/mL
4. > 0.04 µg/mL
5. > 1 µg/mL

Request: Look up MIC50 of `NC(=O)c1cn([C@@H]2O[C@H](CO)[C@@H](O)[C@H]2O)c2ncnc(N)c12` and report it.
Result: 0.02 µg/mL

* * *

Would you mind telling me the reported MIC50 of each entry?
- Tested on: Poliovirus 1
- ASSAY TEXT: Minimum inhibitory concentration required to reduce Polio virus type 1 induced cytopathogenicity by 50%
- Assay type: functional
- CONDITION NOTES: Enterovirus C

Consider the reported MIC50 for these compounds:
Request: Look up MIC50 of `Nc1ncnc2c1ccn2[C@@H]1O[C@H](CO)[C@@H](O)[C@@H]1O` and report it.
Result: > 400 µg/mL

Request: Look up MIC50 of `N#Cc1cn([C@H]2C[C@H](O)[C@@H](CO)O2)c2ncnc(N)c12` and report it.
Result: > 4 µg/mL

Request: Look up MIC50 of `NC(=O)c1cn([C@@H]2O[C@H](CO)[C@@H](O)[C@@H]2O)c2ncnc(N)c12` and report it.
Result: > 10 µg/mL

Hi there! I need MIC50 for each item below, if you can.
1. Nc1ncnc2c([C@@H]3O[C@H](CO)[C@@H](O)[C@H]3O)[nH]nc12 [FORMYCIN]
2. NC(=O)c1cn([C@H]2C[C@H](O)[C@@H](CO)O2)c2ncnc(N)c12
3. Nc1ncnc2c1ccn2[C@H]1C[C@H](O)[C@@H](CO)O1 [2'-Deoxytubercidin]

Result:
1. > 1 µg/mL
2. > 10 µg/mL
3. 150 µg/mL

Request: Look up MIC50 of `Nc1ncnc2c([C@H]3C[C@H](O)[C@@H](CO)O3)n[nH]c12` and report it.
Result: > 400 µg/mL

* * *

- System: Vesicular stomatitis virus
- ASSAY TEXT: Minimum inhibitory concentration required to reduce vesicular stomatitis virus (VSV) induced cytopathogenicity by 50%
- Assay type: functional
Would you mind telling me the reported MIC50 of each entry?
Numbers only, in µg/mL.

Consider the reported MIC50 for these compounds:
Request: Look up MIC50 of `NC(=O)c1ncn([C@@H]2O[C@H](CO)[C@@H](O)[C@H]2O)n1` and report it.
Result: 300

Request: Look up MIC50 of `Nc1ncnc2c([C@@H]3O[C@H](CO)[C@@H](O)[C@H]3O)[nH]nc12` and report it.
Result: 10

Request: Look up MIC50 of `Nc1ncnc2c1ccn2[C@@H]1O[C@H](CO)[C@@H](O)[C@H]1O` and report it.
Result: 0.02

---
Request: Look up MIC50 of `Nc1ncnc2c1ccn2[C@H]1C[C@H](O)[C@@H](CO)O1` and report it.
Result: 125
